testTarget: Protein farnesyltransferase (Homo sapiens, UniProt P49354+P49356)
assayComment: Inhibition of human recombinant FPTase by Ras farnesyl-protein-transferase assay
observedProperty: pIC50
Schema: pIC50 number; meaning minus log10 of the concentration expressed in molar units.

Consider the compound shown here: `COc1cc(O)c(Oc2cc(C)cc(O)c2C(=O)O)c(CO)c1` What is its recorded pIC50? 4.40
